These measurements were taken from the supplement of paper PMC6555819.

Tested on: PXR:RXRa (NR concentration 270 nM, RXRa partner concentration 90 nM)
test: PBM binding z-score (relative to random genomic background probes); higher = stronger binding; sequences stand for … in GC…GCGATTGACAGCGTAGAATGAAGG
Decide using PBM binding z-score: a value greater than or equal to 6 is fulfilled, a smaller one is not fulfilled.

residue_sequence	discrete_label
CAAAATAGGTCACAGAGGTCAAAGTCCGTGCGTA	fulfilled
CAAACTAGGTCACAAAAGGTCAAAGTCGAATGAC	fulfilled
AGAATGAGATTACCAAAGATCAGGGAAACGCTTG	not fulfilled
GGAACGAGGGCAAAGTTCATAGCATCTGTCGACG	not fulfilled
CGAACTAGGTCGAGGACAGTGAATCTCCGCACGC	not fulfilled
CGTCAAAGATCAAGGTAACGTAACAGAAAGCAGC	not fulfilled
